- Target entity: Lysosomal alpha-glucosidase (Homo sapiens) (UniProt P10253)
- Procedure text: Confirmation of Inhibitors and Activators of Purified Human alpha-Glucosidase Using an Alternate Red Fluorescent Susbtrate
- Assay context: purified enzyme, red fluorogenic substrate; series mostly up to 63.4 µM
Results filed as inconclusive are left out. Activity calls are given as the source filed them. Calls follow the shape of the dose curve; as a rule, active = well fitted curve in either direction with a large enough effect; inconclusive = small, poorly fitted or top-dose-only effect; inactive = no such curve, though single readings can be large or run the other way.
Reported property: Potency

# example entries with known answers
[[record]]
molecule = "CC(=O)c1ccc(N2CCN(S(=O)(=O)c3ccc4[nH]c(=O)[nH]c4c3)CC2)cc1"
reported_property = "Potency"
result = "inactive"

[[record]]
molecule = "Cc1nc(N=Nc2cc(S(=O)(=O)O)c3cc([N+](=O)[O-])cc(S(=O)(=O)O)c3c2)c(COP(=O)(O)O)c(C=O)c1O"
reported_property = "Potency"
result = "inactive"

[[record]]
molecule = "O=Cc1ccc(N2CCN(S(=O)(=O)c3ccc4c(c3)CC(=O)N4)CC2)cc1"
reported_property = "Potency"
result = "4.11 µM [inhibitor] (active)"

[[record]]
molecule = "CCCN1CNc2c(c(=O)[nH]c(=O)n2CCc2ccc(OC)c(OC)c2)C1"
reported_property = "Potency"
result = "14.1 µM (active)"

[[record]]
molecule = "CCCN1CNc2c(c(=O)[nH]c(=S)n2CCc2cc(Cl)ccc2Cl)C1"
reported_property = "Potency"
result = "0.794 µM (active)"

[[record]]
molecule = "CCCN1CNc2c(c(=O)[nH]c(=S)n2CCc2cc(Cl)cc(Cl)c2)C1"
reported_property = "Potency"
result = "2 µM (active)"


What Potency appears in the records for this molecule with Lysosomal alpha-glucosidase (Homo sapiens) (UniProt P10253)? `COc1ccc(CCn2c(=S)[nH]c(=O)c3nccnc32)cc1OC`
inactive

What Potency appears in the records for this molecule with Lysosomal alpha-glucosidase (Homo sapiens) (UniProt P10253)? `COc1cc(NS(C)(=O)=O)ccc1Nc1c2ccccc2nc2ccccc12`
inactive

What Potency appears in the records for this molecule with Lysosomal alpha-glucosidase (Homo sapiens) (UniProt P10253)? `CCCN1CNc2c(c(=O)[nH]c(=S)n2CCc2cc(OC)ccc2OC)C1`
6.31 µM (active)

What Potency appears in the records for this molecule with Lysosomal alpha-glucosidase (Homo sapiens) (UniProt P10253)? `CCCN1CNc2c(c(=O)[nH]c(=S)n2CCc2ccc(Cl)cc2)C1`
11.2 µM (active)

----------
- Target entity: Lysosomal alpha-glucosidase (Homo sapiens)
- Procedure text: Confirmation of Inhibitors and Activators of Purified Human alpha-Glucosidase Using an Alternate Red Fluorescent Susbtrate
- Assay context: purified enzyme, red fluorogenic substrate; series mostly up to 63.4 µM
Results filed as inconclusive are left out. Calls of active or inactive are those of the source. Calls come from the whole dose curve; as a rule, active = well fitted curve in either direction with a large enough effect; inconclusive = small, poorly fitted or top-dose-only effect; inactive = no such curve, though single readings can be large or run the other way.
Form entry, call: pick from true for active, false for inactive

Study these solved cases before continuing.
[[record]]
compound = "CC(=O)c1ccc(N2CCN(C(=O)c3ccc4c(c3)CC(=O)N4)CC2)cc1"
assigned_category = "false"

[[record]]
compound = "CC(=O)c1ccc(N2CCN(S(=O)(=O)c3ccc4c(c3)CC(C)N4C(C)=O)CC2)cc1 (centres undefined)"
assigned_category = "false"

[[record]]
compound = "CCCN1CNc2c(c(=O)[nH]c(=S)n2CCc2ccccc2C)C1"
assigned_category = "true"

[[record]]
compound = "OC[C@H]1NC[C@@H](O)[C@@H]1O"
assigned_category = "false"

[[record]]
compound = "O=c1[nH]cc(CCc2ccccc2)c2ncncc12"
assigned_category = "false"

[[record]]
compound = "CCCN1CNc2c(c(=O)[nH]c(=S)n2CCc2ccc(OCC)c(OCC)c2)C1"
assigned_category = "true"

[[record]]
compound = "CCCN1CNc2c(c(=O)[nH]c(=S)n2CCc2cc(C)cc(C)c2)C1"
assigned_category = "true"

[[record]]
compound = "CCCN1CNc2c(c(=O)[nH]c(=S)n2CCc2cccc(C)c2C)C1"
assigned_category = "true"


Now examine the next entry.
Tell me the recorded outcome of this test for `O=C1Cc2cc(S(=O)(=O)N3CCN(c4ccc(O)cc4)CC3)ccc2N1` .
true
